- assay-overview: Single ascending dose study of Compound 2 in GT1-HCV infected patients (Part B): safety, tolerability, pharmacokinetic
- Type: in vivo, human
- measurement-parameters: human, in vivo, 600 mg, GT1-HCV infected patients; Compound 2 600 mg; mean±SD
The reader will find reported Cmax values listed item by item below.
Answer with a number only, understood to be in ng/mL.

CNc1nc(N)nc2c1ncn2[C@@H]1O[C@H](CO[P@@](=O)(N[C@@H](C)C(=O)OC(C)C)Oc2ccccc2)[C@@H](O)[C@@]1(C)F    3540

Then this compound:
For record C[C@@]1(F)[C@H](O)[C@@H](CO)O[C@H]1n1cnc2c(=O)[nH]c(N)nc21 [Metabolite 1-7] the listed Cmax is 198

---

- assay-overview: Plasma levels of metabolites following single oral doses of Compound 2, dogs
- Type: in vivo, dog
- measurement-parameters: dog, plasma, po, 300 mg/kg
reported-property: AUC(0-t) (ng·h/mL)
Answer with a number only, understood to be in ng·h/mL.

For record `CNc1nc(N)nc2c1ncn2[C@@H]1O[C@H](CO[P@@](=O)(N[C@@H](C)C(=O)OC(C)C)Oc2ccccc2)[C@@H](O)[C@@]1(C)F` the listed AUC(0-t) is 44300

---

- assay-overview: Single ascending dose study of Compound 2 in healthy volunteers (Part A): safety, tolerability, pharmacokinetic
- Type: in vivo, human
- measurement-parameters: both sexes, human, plasma, oral, 100 mg
reported-property: AUC (ng·h/mL)
Answer with a number only, understood to be in ng·h/mL.

For record C[C@@]1(F)[C@H](O)[C@@H](CO)O[C@H]1n1cnc2c(=O)[nH]c(N)nc21 [Metabolite 1-7] the listed AUC is 663

---

- assay-overview: Single ascending dose study of Compound 2 in GT1-HCV infected patients (Part B): safety, tolerability, pharmacokinetic
- Assay type: in vivo, human
- measurement-parameters: human, plasma, oral, 300 mg, GT1-HCV infected patients; Compound 2 300 mg (first 300 mg line); mean±SD; read-out: C24h
reported-property: concentration at 24 h (ng/mL)
Answer with a number only, understood to be in ng/mL.

For record C[C@@]1(F)[C@H](O)[C@@H](CO)O[C@H]1n1cnc2c(=O)[nH]c(N)nc21 [Metabolite 1-7] the listed concentration at 24 h is 10.9

---

- assay-overview: Single ascending dose study of Compound 2 in healthy volunteers (Part A): safety, tolerability, pharmacokinetic
- Format: in vivo, human
- measurement-parameters: both sexes, human, plasma, oral, 50 mg; read-out: C24h
reported-property: concentration at 24 h (ng/mL)
Answer with a number only, understood to be in ng/mL.

For record C[C@@]1(F)[C@H](O)[C@@H](CO)O[C@H]1n1cnc2c(=O)[nH]c(N)nc21 [Metabolite 1-7] the listed concentration at 24 h is 2.28

---

- assay-overview: Single ascending dose study of Compound 2 in healthy volunteers (Part A): safety, tolerability, pharmacokinetic
- Type: in vivo, human
- measurement-parameters: both sexes, human, in vivo, 50 mg
reported-property: half-life (min)
Answer with a number only, understood to be in min.

For record `CNc1nc(N)nc2c1ncn2[C@@H]1O[C@H](CO[P@@](=O)(N[C@@H](C)C(=O)OC(C)C)Oc2ccccc2)[C@@H](O)[C@@]1(C)F` the listed half-life is 19.2

---

- assay-overview: Single ascending dose study of Compound 2 in healthy volunteers (Part A): safety, tolerability, pharmacokinetic
- Assay type: in vivo, human
- measurement-parameters: both sexes, human, in vivo, 100 mg
reported-property: Tmax (min)
Answer with a number only, understood to be in min.

For record `CNc1nc(N)nc2c1ncn2[C@@H]1O[C@H](CO[P@@](=O)(N[C@@H](C)C(=O)OC(C)C)Oc2ccccc2)[C@@H](O)[C@@]1(C)F` the listed Tmax is 30

---

- assay-overview: Single ascending dose study of Compound 2 in healthy volunteers (Part A): safety, tolerability, pharmacokinetic
- Format: in vivo, human
- measurement-parameters: both sexes, human, plasma, oral, 100 mg
reported-property: Cmax (ng/mL)
Answer with a number only, understood to be in ng/mL.

For record C[C@@]1(F)[C@H](O)[C@@H](CO)O[C@H]1n1cnc2c(=O)[nH]c(N)nc21 [Metabolite 1-7] the listed Cmax is 56.6

---

The reader will find reported Cmax values listed item by item below.
- assay-overview: Single ascending dose study of Compound 2 in GT1-HCV infected patients (Part B): safety, tolerability, pharmacokinetic
- Type: in vivo, human
- measurement-parameters: human, in vivo, 100 mg, GT1-HCV infected patients; Compound 2 100 mg; mean±SD
Answer with a number only, understood to be in ng/mL.

C[C@@]1(F)[C@H](O)[C@@H](CO)O[C@H]1n1cnc2c(=O)[nH]c(N)nc21 [Metabolite 1-7]    50.2

For record `CNc1nc(N)nc2c1ncn2[C@@H]1O[C@H](CO[P@@](=O)(N[C@@H](C)C(=O)OC(C)C)Oc2ccccc2)[C@@H](O)[C@@]1(C)F` the listed Cmax is 212

---

The reader will find reported HPLC purity values listed item by item below.
- assay-overview: Storage of Compound 1 forms and amorphous salts at 25° C./60% RH for 14 days (HPLC, XRPD, observation)
- measurement-parameters: 7 days at 25° C./60% RH
When you answer, write just the number.

For record CNc1nc(N)nc2c1ncn2[C@@H]1O[C@H](CO[P@@](=O)(N[C@@H](C)C(=O)OC(C)C)Oc2ccccc2)[C@@H](O)[C@@]1(C)F [Sample 1-2] the listed HPLC purity is 99.2

For record CNc1nc(N)nc2c1ncn2[C@@H]1O[C@H](CO[P@@](=O)(N[C@@H](C)C(=O)OC(C)C)Oc2ccccc2)[C@@H](O)[C@@]1(C)F [Sample 1-1] the listed HPLC purity is 98.7

For record CNc1nc(N)nc2c1ncn2C1OC(COP(=O)(NC(C)C(=O)OC(C)C)Oc2ccccc2)C(O)C1(C)F.CNc1nc(N)nc2c1ncn2C1OC(COP(=O)(NC(C)C(=O)OC(C)C)Oc2ccccc2)C(O)C1(C)F.O=S(=O)(O)O (stereo not drawn) [Sample 1-9] the listed HPLC purity is 98.1

For record CNc1nc(N)nc2c1ncn2C1OC(COP(=O)(NC(C)C(=O)OC(C)C)Oc2ccccc2)C(O)C1(C)F.Cl (stereo not drawn) [Sample 1-4] the listed HPLC purity is 98.8

For record CNc1nc(N)nc2c1ncn2[C@@H]1O[C@H](CO[P@@](=O)(N[C@@H](C)C(=O)OC(C)C)Oc2ccccc2)[C@@H](O)[C@@]1(C)F [Sample 1-3] the listed HPLC purity is 99.6

For record CNc1nc(N)nc2c1ncn2C1OC(COP(=O)(NC(C)C(=O)OC(C)C)Oc2ccccc2)C(O)C1(C)F.O=S(=O)(O)O (stereo not drawn) [Sample 1-5] the listed HPLC purity is 55.7

---

The reader will find reported AUC(0-t) values listed item by item below.
- assay-overview: Plasma profiles of Compound 2 metabolites in monkeys
- Assay type: in vivo, cynomolgus monkeys
- measurement-parameters: cynomolgus monkey, plasma, po, 100 mg/kg
Answer with a number only, understood to be in ng·h/mL.

CNc1nc(N)nc2c1ncn2[C@@H]1O[C@H](CO[P@@](=O)(N[C@@H](C)C(=O)OC(C)C)Oc2ccccc2)[C@@H](O)[C@@]1(C)F    1100

Then this compound:
For record C[C@@]1(F)[C@H](O)[C@@H](CO)O[C@H]1n1cnc2c(=O)[nH]c(N)nc21 [Metabolite 1-7] the listed AUC(0-t) is 3030

---

- assay-overview: Plasma profiles of Compound 2 metabolites in monkeys
- Format: in vivo, cynomolgus monkeys
- measurement-parameters: cynomolgus monkey, plasma, po, 30 mg/kg
The reader will find reported AUC(0-t) values listed item by item below.

CNc1nc(N)nc2c1ncn2[C@@H]1O[C@H](CO[P@@](=O)(N[C@@H](C)C(=O)OC(C)C)Oc2ccccc2)[C@@H](O)[C@@]1(C)F [Compound 1]    176 ng·h/mL

For record C[C@@]1(F)[C@H](O)[C@@H](CO)O[C@H]1n1cnc2c(=O)[nH]c(N)nc21 [Metabolite 1-7] the listed AUC(0-t) is 1620 ng·h/mL

---

- assay-overview: Plasma levels of metabolites following single oral doses of Compound 2, dogs
- Format: in vivo, dog
- measurement-parameters: dog, plasma, po, 30 mg/kg
reported-property: AUC(0-t) (ng·h/mL)
Answer with a number only, understood to be in ng·h/mL.

For record CNc1nc(N)nc2c1ncn2[C@@H]1O[C@H](CO[P@@](=O)(N[C@@H](C)C(=O)OC(C)C)Oc2ccccc2)[C@@H](O)[C@@]1(C)F [Compound 2] the listed AUC(0-t) is 1300

---

- assay-overview: Single ascending dose study of Compound 2 in GT1-HCV infected patients (Part B): safety, tolerability, pharmacokinetic
- Assay type: in vivo, human
- measurement-parameters: human, in vivo, 300 mg, GT1-HCV infected patients; Compound 2 300 mg (first 300 mg line); mean±SD; based on 24-hr profile
reported-property: half-life (h)
Answer with a number only, understood to be in h.

For record C[C@@]1(F)[C@H](O)[C@@H](CO)O[C@H]1n1cnc2c(=O)[nH]c(N)nc21 [Metabolite 1-7] the listed half-life is 8.1
